# measurementTarget: Mitogen-activated protein kinase 8 (Homo sapiens)
# Sequence (P45983 whole entry): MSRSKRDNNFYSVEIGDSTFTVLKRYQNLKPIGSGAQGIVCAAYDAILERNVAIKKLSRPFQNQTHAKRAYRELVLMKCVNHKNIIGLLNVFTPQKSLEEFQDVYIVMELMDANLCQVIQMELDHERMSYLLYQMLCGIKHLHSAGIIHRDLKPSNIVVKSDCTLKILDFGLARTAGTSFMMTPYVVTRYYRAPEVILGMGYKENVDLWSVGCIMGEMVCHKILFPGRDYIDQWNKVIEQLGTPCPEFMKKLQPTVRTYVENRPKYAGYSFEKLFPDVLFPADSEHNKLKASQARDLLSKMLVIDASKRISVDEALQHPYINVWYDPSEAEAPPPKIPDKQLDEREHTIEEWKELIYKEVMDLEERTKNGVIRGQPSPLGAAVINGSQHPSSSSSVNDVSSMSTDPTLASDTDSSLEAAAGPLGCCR
# protocolDetails: Inhibition of human JNK1alpha1 after 40 mins by [gamma-33ATP] radiometric assay relative to control
assayReadout: IC50

[Q] Report IC50 for N#Cc1ccc2c(c1)N/C(=C\C(=O)c1cccc3ccccc13)C(=O)N2 tested on Mitogen-activated protein kinase 8 (Homo sapiens).
[A] > 100 µM

* * *

# measurementTarget: Mitogen-activated protein kinase 10 (Homo sapiens, UniProt P53779)
# Sequence (P53779 whole entry): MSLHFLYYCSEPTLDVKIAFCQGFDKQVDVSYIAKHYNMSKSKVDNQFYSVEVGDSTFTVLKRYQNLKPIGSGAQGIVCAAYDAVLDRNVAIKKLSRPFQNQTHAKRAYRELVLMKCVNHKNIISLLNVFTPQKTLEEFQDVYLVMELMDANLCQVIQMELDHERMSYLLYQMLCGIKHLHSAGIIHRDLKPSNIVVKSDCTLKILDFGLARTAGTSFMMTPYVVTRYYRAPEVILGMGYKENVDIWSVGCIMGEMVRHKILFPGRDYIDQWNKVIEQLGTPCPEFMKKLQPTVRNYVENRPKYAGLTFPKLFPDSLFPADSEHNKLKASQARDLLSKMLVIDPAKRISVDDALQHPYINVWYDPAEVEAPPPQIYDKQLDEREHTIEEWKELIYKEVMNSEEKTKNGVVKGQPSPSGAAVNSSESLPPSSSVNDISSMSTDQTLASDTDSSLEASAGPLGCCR
# protocolDetails: Inhibition of human JNK3 after 40 mins by [gamma-33ATP] radiometric assay relative to control
Field: label. Allowed values: yes (IC50 < 400 nM) or no (IC50 >= 400 nM).

A selection of reference data follows.
>  <givenSmiles>
N#Cc1ccc2c(c1)N/C(=C\C(=O)c1cccc3ccccc13)C(=O)N2

>  <answerLabel>
yes

$$$$
>  <givenSmiles>
O=C1Nc2ccccc2N/C1=C\C(=O)c1ccccc1Br

>  <answerLabel>
no

$$$$
>  <givenSmiles>
O=C1Nc2ccccc2N/C1=C\C(=O)c1cccc(Cl)c1Cl

>  <answerLabel>
no

$$$$
>  <givenSmiles>
Cc1ccccc1C(=O)/C=C1\Nc2ccccc2NC1=O

>  <answerLabel>
no

$$$$
>  <givenSmiles>
Cc1cccc(C(=O)/C=C2\Nc3ccccc3NC2=O)c1

>  <answerLabel>
yes

$$$$

[Q] Given the entry Nc1ccccc1C(=O)/C=C1\Nc2ccccc2NC1=O , would its reported IC50 be below 400 nM?
[A] no

[Q] How about this compound: Nc1cccc(C(=O)/C=C2\Nc3ccccc3NC2=O)c1
[A] no

[Q] How about this compound: COc1cccc(C(=O)/C=C2\Nc3ccccc3NC2=O)c1
[A] no

[Q] How about this compound: COc1ccccc1C(=O)/C=C1\Nc2cc(C#N)ccc2NC1=O
[A] no

[Q] How about this compound: N#Cc1ccc2c(c1)N/C(=C\C(=O)c1ccccc1Br)C(=O)N2
[A] no
